FYI, the data here is from PubChem BioAssay.

ASSAY_PROTOCOL: fission yeast growth modulation, primary screen, strain 972, OD600, 24 h, no modulator (AID 1090);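 note: basal condition with compound alone and no growth modifier present; test concentration not given here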
CONDITION: S. pombe 972 growth, higher = more signal, called active from +8 up or from −8 down
Active and inactive are the calls of the source.
Below, each entry is listed alongside its reported z-score.
PROPERTY: z-score

[[record]]
molecule = "CCCCN1CC=CC23O[C@@H]4/C=C\\CCC(C)OC(=O)C4[C@H]2C(=O)N(CCCCCO)[C@@H]3C1=O (some centres undefined)"
endpoint_result = "-0.831 (inactive)"

[[record]]
molecule = "CC(C)(C)OC(=O)CC[C@@]1(C(=O)NCC(O)CO)N=C(c2ccc(OCCCO)cc2)O[C@@H]1c1ccccc1N=[N+]=[N-] (some centres undefined)"
endpoint_result = "-1.74 (inactive)"

[[record]]
molecule = "COC(=O)[C@@]1(Cc2ccccc2)[C@H]2c3cc(C(=O)N(C)C)n(CCSCCO)c3C[C@H]2CN1C(=O)c1ccccc1"
endpoint_result = "0.536 (inactive)"

[[record]]
molecule = "O=C1C2C=CC(C(O)c3c(F)cccc3Cl)N(Nc3ccccc3)C2C(=O)N1c1ccccc1 (centres undefined)"
endpoint_result = "0.211 (inactive)"

